Tested on: E. coli WP2
Assay Procedure: Ames microplate test, E. coli WP2;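 also: bacteria exposed to compound for 90 min at 37 °C in 24-well plates, then transferred with indicator medium to 384-well plates and incubated 48 h before yellow well counting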
Recorded Conditions: 2.0 mM, without S9
Measured Parameter: Increase in the number of yellow wells compared to the reference level, E. coli WP2

Cc1ccc(/C=C/C(=O)NCCCCCO)cc1 [H-415/21]; 0.95
O=C(/C=C/c1ccccc1)NCCCCCO [Compound A-133]; 1.10
O=C(/C=C/c1ccc(Cl)cc1)NCCCCCO [Compound A-111]; 1.10
CCC(O)CNC(=O)/C=C/c1ccc(Cl)cc1 (stereo not drawn) [Compound A-67]; 0.83
O=C(/C=C/c1ccccc1)NCCCCCCO [H-425/21]; 1.00
CC(CO)NC(=O)/C=C/c1ccc(Cl)cc1 (stereo not drawn) [Compound A-102]; 0.79

----------
Below, each entry is listed with its recorded LDH, Fibroblasts (BJ).
System: fibroblasts (BJ)
Assay Procedure: Safety, LDH test in fibroblasts
Type: cell-based
Recorded Conditions: 200 μM, 48 hours, vs Triton X-100
Measured Parameter: LDH, Fibroblasts (BJ)

O=C(/C=C/c1ccc(Cl)cc1)NCCCCCO; 8.43 percentage of positive control
O=C(/C=C/c1ccc(Cl)cc1)NCCCO; 14.25 percentage of positive control
Cc1ccc(/C=C/C(=O)NCCCCCO)cc1; 9.82 percentage of positive control
O=C(/C=C/c1ccc(Cl)cc1)NCCO; 9.00 percentage of positive control
O=C(/C=C/c1ccccc1)NCCCCCO; 14.72 percentage of positive control

----------
Test system: keratinocytes (HaCaT)
Assay Procedure: Safety, MTT test in keratinocytes
Type: cell-based
Recorded Conditions: 100 μM, 48 hours
Recorded MTT, Keratinocytes (HaCaT), one value per entry.
Measured Parameter: MTT, Keratinocytes (HaCaT)

O=C(/C=C/c1ccc(Cl)cc1)NCCCO [H-330/21]; 102.03 ± 1.45 % of solvent control
Cc1ccc(/C=C/C(=O)NCCCCCO)cc1 [H-415/21]; 101.11 ± 2.03 % of solvent control
O=C(/C=C/c1ccc(Cl)cc1)NCCO [H-427/21]; 100.47 ± 3.65 % of solvent control
O=C(/C=C/c1ccc(Cl)cc1)NCCCCCO [Compound A-111]; 101.68 ± 3.45 % of solvent control
O=C(/C=C/c1ccccc1)NCCCCCO [Compound A-133]; 101.35 ± 2.17 % of solvent control

----------
Tested on: S. typhimurium TA1535
Assay Procedure: Ames microplate test, TA1535;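 also: bacteria exposed 90 min at 37 °C in exposure medium, then 48 h in indicator medium in 384-well plates, yellow (revertant) wells counted per condition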
Recorded Conditions: 2.0 mM, without S9
Measured Parameter: Increase in the number of yellow wells compared to the reference level, TA1535

CCC(O)CNC(=O)/C=C/c1ccc(Cl)cc1 (stereo not drawn) [Compound A-67]; 1.04
CC(CO)NC(=O)/C=C/c1ccc(Cl)cc1 (stereo not drawn) [Compound A-102]; 0.89
Cc1ccc(/C=C/C(=O)NCCCCCO)cc1 [H-415/21]; 0.10
O=C(/C=C/c1ccccc1)NCCCCCCO [H-425/21]; 0.45
O=C(/C=C/c1ccc(Cl)cc1)NCCCCCO [Compound A-111]; 1.65
O=C(/C=C/c1ccccc1)NCCCCCO [Compound A-133]; 1.10

----------
Some molecules, each annotated with its measured LDH, Primary melanocytes.
Tested on: primary melanocytes
Assay Procedure: Safety, LDH test in primary melanocytes
Assay type: cell-based
Recorded Conditions: 150 μM, 48 hours, vs Triton X-100
Measured Parameter: LDH, Primary melanocytes

O=C(/C=C/c1ccc(Cl)cc1)NCCO [H-427/21]; 4.44 percentage of positive control
O=C(/C=C/c1ccc(Cl)cc1)NCCCO [H-330/21]; 13.09 percentage of positive control
O=C(/C=C/c1ccccc1)NCCCCCO [Compound A-133]; 7.59 percentage of positive control
O=C(/C=C/c1ccc(Cl)cc1)NCCCCCO [Compound A-111]; 4.95 percentage of positive control
Cc1ccc(/C=C/C(=O)NCCCCCO)cc1 [H-415/21]; 6.01 percentage of positive control

----------
Listing of entries alongside the reported LDH, Neuroblastoma SH-SY5Y.
Tested on: neuroblastoma SH-SY5Y
Assay Procedure: Safety, LDH test in SH-SY5Y
Type: cell-based
Recorded Conditions: 150 μM, 48 hours, vs Triton X-100
Measured Parameter: LDH, Neuroblastoma SH-SY5Y

O=C(/C=C/c1ccccc1)NCCCCCO; 6.93 percentage of positive control
O=C(/C=C/c1ccc(Cl)cc1)NCCCO; 4.90 percentage of positive control
O=C(/C=C/c1ccc(Cl)cc1)NCCCCCO; 4.61 percentage of positive control
O=C(/C=C/c1ccc(Cl)cc1)NCCO; 4.45 percentage of positive control
Cc1ccc(/C=C/C(=O)NCCCCCO)cc1; 7.24 percentage of positive control

----------
Attribute: Increase in the number of yellow wells compared to the reference level, TA98
Test system: S. typhimurium TA98
Assay Procedure: Ames microplate test, TA98
Type: cell-based, Salmonella typhimurium
Recorded Conditions: 1.0 mM, + S9
Measured Parameter: Increase in the number of yellow wells compared to the reference level, TA98

O=C(/C=C/c1ccc(Cl)cc1)NCCCCCO; 0.83
CCC(O)CNC(=O)/C=C/c1ccc(Cl)cc1 (stereo not shown); 0.94
O=C(/C=C/c1ccccc1)NCCCCCO; 0.67
O=C(/C=C/c1ccccc1)NCCCCCCO; 0.42

----------
System: hepatocarcinoma HepG2
Assay Procedure: Safety, MTT test in HepG2
Assay type: cell-based
Recorded Conditions: 150 μM, 48 hours
Below, each entry is listed with its recorded MTT, Hepatocarcinoma HepG2.
Measured Parameter: MTT, Hepatocarcinoma HepG2

O=C(/C=C/c1ccccc1)NCCCCCO; 100.66 ± 7.39 % of solvent control
O=C(/C=C/c1ccc(Cl)cc1)NCCO; 98.44 ± 3.94 % of solvent control
O=C(/C=C/c1ccc(Cl)cc1)NCCCO; 100.44 ± 3.93 % of solvent control
O=C(/C=C/c1ccc(Cl)cc1)NCCCCCO; 97.87 ± 3.27 % of solvent control
Cc1ccc(/C=C/C(=O)NCCCCCO)cc1; 99.54 ± 5.74 % of solvent control

----------
Readings of RM0 for the listed compounds
Assay Procedure: Lipophilicity coefficient RM0 by reversed phase thin layer chromatography
Format: physicochemical
Recorded Conditions: RP-18 TLC, methanol/phosphate buffer pH=7.4
Measured Parameter: RM0

Cc1ccc(/C=C/C(=O)NCCCO)cc1; 2.04
O=C(/C=C/c1ccc(Cl)cc1Cl)NCCCO; 2.11
CCC(CO)NC(=O)/C=C/c1ccc(Cl)cc1 (stereo not shown); 2.43
O=C(/C=C/c1ccccc1)NCCO; 1.27
CC(C)C(CO)NC(=O)/C=C/c1ccc(Cl)cc1 (stereo not shown); 2.76
O=C(/C=C/c1ccc(Cl)cc1)NCCCCCO; 2.79
O=C(/C=C/c1ccc(Cl)cc1Cl)NCCCCCO; 3.08
CCC(CO)NC(=O)/C=C/c1ccc(C)cc1 (stereo not shown); 2.49
O=C(/C=C/c1ccc(Cl)cc1)NCCCCO; 2.14
Cc1ccc(/C=C/C(=O)NCCCCCO)cc1; 2.49
O=C(/C=C/c1ccccc1)NCCCO; 1.60
O=C(/C=C/c1ccc(Cl)cc1)NCCCO; 1.94
CCC(O)CNC(=O)/C=C/c1ccc(C)cc1 (stereo not shown); 2.39
CCC(O)CNC(=O)/C=C/c1ccc(Cl)cc1 (stereo not shown); 2.46
CCC(O)CNC(=O)/C=C/c1ccc(Cl)cc1Cl (stereo not shown); 3.08
CCC(CO)NC(=O)/C=C/c1ccc(Cl)cc1Cl (stereo not shown); 3.08

----------
Test system: keratinocytes (HaCaT)
Assay Procedure: Safety, MTT test in keratinocytes
Type: cell-based
Recorded Conditions: 200 μM, 48 hours
// reported MTT, Keratinocytes (HaCaT) for each item listed
Measured Parameter: MTT, Keratinocytes (HaCaT)

O=C(/C=C/c1ccccc1)NCCCCCO [Compound A-133]; 101.51 ± 2.49 % of solvent control
Cc1ccc(/C=C/C(=O)NCCCCCO)cc1 [H-415/21]; 100.88 ± 1.40 % of solvent control
O=C(/C=C/c1ccc(Cl)cc1)NCCO [H-427/21]; 99.24 ± 3.00 % of solvent control
O=C(/C=C/c1ccc(Cl)cc1)NCCCCCO [Compound A-111]; 101.04 ± 2.77 % of solvent control
O=C(/C=C/c1ccc(Cl)cc1)NCCCO [H-330/21]; 97.07 ± 2.81 % of solvent control

----------
Tested on: CHO-K1 cells
Assay Procedure: Cytotoxicity (MTT) in CHO-K1 cells before the micronucleus test
Format: cell-based, Chinese hamster
Recorded Conditions: 150 μM, 24 hours
The entries below come with measured % Viability [mean], CHO-K1 values attached.
Measured Parameter: % Viability [mean], CHO-K1 (%)

O=C(/C=C/c1ccc(Cl)cc1)NCCCCCO [Compound A-111]; 95.6
Cc1ccc(/C=C/C(=O)NCCCCCO)cc1 [H-415/21]; 102.8
O=C(/C=C/c1ccccc1)NCCCCCO [Compound A-133]; 97.2
CC(CO)NC(=O)/C=C/c1ccc(Cl)cc1 (stereo not drawn) [Compound A-102]; 69.9
O=C(/C=C/c1ccccc1)NCCCCCCO [H-425/21]; 83.8
CCC(O)CNC(=O)/C=C/c1ccc(Cl)cc1 (stereo not drawn) [Compound A-67]; 90.3
